So I've got a bunch of molecules here, and I need their Biochem EGFR % Inhibition (P.167) values.
assay target: EGFR (Homo sapiens, UniProt P00533)
Construct: endogenous in cells; host or cells: A431 cells (lysate, captured with SUMO1 anti-EGFR antibody)
Sequence (P00533 25-1210): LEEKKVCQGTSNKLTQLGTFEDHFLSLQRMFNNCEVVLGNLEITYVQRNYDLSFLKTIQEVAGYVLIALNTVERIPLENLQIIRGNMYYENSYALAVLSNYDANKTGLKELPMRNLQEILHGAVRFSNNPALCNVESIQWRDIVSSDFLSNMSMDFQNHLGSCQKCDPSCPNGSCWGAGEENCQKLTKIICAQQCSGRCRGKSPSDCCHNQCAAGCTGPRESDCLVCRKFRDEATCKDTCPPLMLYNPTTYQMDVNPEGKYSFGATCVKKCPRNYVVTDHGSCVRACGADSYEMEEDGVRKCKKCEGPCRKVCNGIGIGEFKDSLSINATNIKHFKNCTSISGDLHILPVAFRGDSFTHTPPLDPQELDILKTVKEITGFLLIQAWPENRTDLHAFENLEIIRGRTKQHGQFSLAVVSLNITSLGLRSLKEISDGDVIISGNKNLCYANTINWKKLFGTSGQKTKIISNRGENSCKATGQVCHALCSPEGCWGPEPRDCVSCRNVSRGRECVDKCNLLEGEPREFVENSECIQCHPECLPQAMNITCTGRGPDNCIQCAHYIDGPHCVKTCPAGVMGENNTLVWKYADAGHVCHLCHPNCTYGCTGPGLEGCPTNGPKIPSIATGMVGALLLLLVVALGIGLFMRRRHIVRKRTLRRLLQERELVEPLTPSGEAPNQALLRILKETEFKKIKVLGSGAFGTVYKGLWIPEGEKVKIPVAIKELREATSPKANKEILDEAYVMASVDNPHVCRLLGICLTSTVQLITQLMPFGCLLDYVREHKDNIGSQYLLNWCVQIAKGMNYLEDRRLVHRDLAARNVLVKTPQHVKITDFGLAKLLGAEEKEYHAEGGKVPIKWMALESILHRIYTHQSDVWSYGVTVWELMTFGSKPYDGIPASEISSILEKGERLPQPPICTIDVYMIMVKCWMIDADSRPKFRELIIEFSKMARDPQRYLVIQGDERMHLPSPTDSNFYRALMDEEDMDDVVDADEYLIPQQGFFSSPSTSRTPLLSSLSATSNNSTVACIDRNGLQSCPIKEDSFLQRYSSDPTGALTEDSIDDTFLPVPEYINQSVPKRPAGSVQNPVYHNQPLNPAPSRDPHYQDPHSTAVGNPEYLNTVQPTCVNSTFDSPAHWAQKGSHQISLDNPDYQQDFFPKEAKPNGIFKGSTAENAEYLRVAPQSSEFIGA
protocol notes: Biochemical EGFR Assay
Design: concentration or dose not given beside the values
condition notes: protocol P.167
Numbers only, in %.

Here are 5 molecules together with their reported answers.
1) O=C1Nc2ccc(S(=O)(=O)Nc3ccc(C(F)(F)F)cc3)cc2C1=Cc1cccc(Oc2cccc(C(F)(F)F)c2)c1 [10737/E11]; −33.4
2) O=C1Nc2ccc(I)cc2C1=Cc1ccc(Cl)c(Cl)c1 [10738/B08]; 33.9
3) CC(C)(C)c1ccc(Oc2cccc(C=C3C(=O)Nc4ccc(I)cc43)c2)cc1 [10737/B10]; −7.3
4) O=C1Nc2ccc(S(=O)(=O)N3CCOCC3)cc2C1=Cc1ccc(OCc2ccccc2)cc1 [10739/F04]; −7.0
5) Cc1c(Br)cc(Br)c2c1C(=Cc1cccc(F)c1F)C(=O)N2 [10737/H05]; −17.4

Give me Biochem EGFR % Inhibition (P.167) for each of these molecules, listed below.
1. CNS(=O)(=O)c1ccc2c(c1)C(=Cc1cc(O)c(O)c(O)c1)C(=O)N2 [10739/D07]
2. Cc1c(Br)cc(Br)c2c1C(=Cc1ccc3ccccc3n1)C(=O)N2 [10740/H06]
3. CNS(=O)(=O)c1ccc2c(c1)C(=Cc1ccc(OCCCN(C)C)cc1)C(=O)N2 [10739/D09]
4. COc1ccc(C=C2C(=O)Nc3c(Br)cc(Br)cc32)cc1F [10737/A06]

stdout:
[21.1, 4.8, "−15.1", 37.3]

EGFR (Homo sapiens, UniProt P00533) Biochem EGFR % Inhibition (P.167) of Cc1c(Br)ccc2c1C(=Cc1cc(F)ccc1F)C(=O)N2 [10737/C04] is 14.4
